Recorded IL-17 EC50, one value per entry.
Target: T1, human IL-23 (human, UniProt Q9NPF7 20-189; P29460 23-328)
T1 sequence (looked up) 1: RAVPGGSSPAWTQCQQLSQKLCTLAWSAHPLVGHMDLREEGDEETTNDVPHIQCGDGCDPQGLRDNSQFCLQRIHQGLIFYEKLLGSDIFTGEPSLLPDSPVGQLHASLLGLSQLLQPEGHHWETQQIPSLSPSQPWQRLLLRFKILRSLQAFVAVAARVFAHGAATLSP
T1 sequence (looked up) 2: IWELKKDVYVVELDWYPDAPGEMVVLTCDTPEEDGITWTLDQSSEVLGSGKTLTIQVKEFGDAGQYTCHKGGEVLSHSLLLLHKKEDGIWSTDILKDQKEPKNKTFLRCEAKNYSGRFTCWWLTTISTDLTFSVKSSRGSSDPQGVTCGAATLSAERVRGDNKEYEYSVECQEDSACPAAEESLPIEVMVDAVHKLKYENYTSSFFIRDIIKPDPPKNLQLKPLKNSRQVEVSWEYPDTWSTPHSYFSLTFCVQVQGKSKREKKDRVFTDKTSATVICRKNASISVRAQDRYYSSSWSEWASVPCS
Test: cell-based or functional assay
measurementKind: IL-17 EC50 (nM)

- 1490H05 (designed binder, captured by anti-His mAb) MGVSDVPRDLEVVAATPTSLLISWGHYPLHVRYYRITYGETGGNSPVQEFTVPMRQHTATISGLKPGVDYTITVYAVTYYAQENYKEIPISINYRTEIDKPSQHHHHHH: 1.8
- 1571G04 (designed binder, captured by anti-His mAb) MGVSDVPRDLEVVAATPTSLLISWGHYPLHVRYYRITYGETGGNSPVQEFTVPPRSHTATISGLKPGVDYTITVYAVTYYAQENYKEIPISINYRTEIDKPSQHHHHHH: 1.4
- 1571H03 (designed binder, captured by anti-His mAb) MGVSDVPRDLEVVAATPTSLLISWGHYPLHVRYYRITYGETGGNSPVQEFTVPNRVYTATISGLKPGVDYTITVYAVTYYAQEEYHIIPISINYRTEIDKPSQHHHHHH: 2.9
- 1572C09 (designed binder, captured by anti-His mAb) MGVSDVPRDLEVVAATPTSLLISWGHYPMHIRYYRITYGETGGNSPVQEFTVPTPKHTATISGLKPGVDYTITVYAVTYYNEADYSQIPISINYRTEIDKPSQHHHHHH: 7.9
